test: chemical genetic growth profiling, strain panel (AID 1159580);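 further: tested at 20 µM; growth read once vehicle control cultures reached saturation at 30 °C; 1 = growth at the plate median or of vehicle wells; lower values mean less growth of the strain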; conditions: S. cerevisiae deletion strains, growth OD, locus YNL322C, strain KRE1, active compounds read low
Hit rate of the full screen: of about 5,500 compounds, about 2,000 (36%) were called active. About 18% were inconclusive and are not listed. Some of the results follow.
resultType: normalized growth
Lab note: write the figure by itself, no unit.

Known normalized growth results, listed for orientation:
| compound | experimentalValue |
| --- | --- |
| CC(=O)[C@H]1CCC2C3CC=C4C[C@@H](O)CC[C@]4(C)C3CC[C@@]21C (stereo not given in full) | 1.01 |
| COc1ccc(-c2coc3cc(OC)cc(O)c3c2=O)cc1 | 0.985 |
| COc1ccc(-c2cc(=O)c3cc(OC)ccc3o2)cc1 | 1 |
| CSC(=NCc1cccnc1)NC#N | 0.998 |
| COc1cc([C@@H]2c3cc4c(cc3[C@H](O)[C@H]3COC(=O)[C@@H]23)OCO4)cc(OC)c1OC | 1 |

# input Consider the compound COc1cccc2c1cc([N+](=O)[O-])c1c(C(=O)O)cc3c(c12)OCO3 and give its recorded normalized growth.
# output 1

# input # return recorded normalized growth for input CC(N)Cc1ccc(O)cc1 (stereo not given)
# output 1.01

# input Output measured normalized growth for this item: CCCCCn1c(Sc2ncc([N+](=O)[O-])s2)n[nH]c1=O
# output 0.917

# input Hello, please tell me recorded normalized growth for this one: CC(=O)C1COc2ccc(C)cc2C1=O (stereo not given)
# output 0.979

# input State its normalized growth: CN1CCOC(c2ccccc2)c2ccccc2C1 (stereo not given)
# output 0.941

---

experiment: chemical genetic growth profiling, strain panel (AID 1159580); settings: S. cerevisiae deletion strains, growth OD, locus YOR080W, strain dia2
The campaign covered roughly 5,500 compounds. About 2,000 (36%) were called active. Roughly 18% stayed inconclusive and do not appear here. Rule as the data show it: active = normalized growth mostly below about 0.91 (no sharp cut-off); inconclusive = no clear call, values can overlap the other calls; inactive = mostly above about 0.92. The list shows a part of the results.
Response enum: active, inactive

Example cases with answers are listed next.
| compound | labelClass |
| --- | --- |
| CC[C@]12C=CCN3CC[C@@]4(c5ccc(OC)cc5N(C)C4[C@@](O)(C(=O)OC)[C@@H]1OC(C)=O)[C@@H]32 (some centres undefined) | inactive |
| CC(=O)CC(c1ccccc1)c1c(O)c2ccccc2oc1=O (centres undefined) | inactive |
| CCN(CC)CCNc1ccc(CO)c2sc3ccccc3c(=O)c12 | inactive |

# input Which result was noted for this compound in the test: O=C(O)c1cc(=O)c2ccccc2o1
# output inactive

# input What outcome does the record of this test show for CCCCOc1cc(CC2CNC(=O)N2)ccc1OC (centres undefined) ?
# output inactive

# input Please let me know the test result on file for CC(=O)Oc1ccc(-c2cc(=O)c3c(OC(C)=O)cc(OC(C)=O)cc3o2)cc1 .
# output inactive

# input Status in this test for CCCCCCCCCCCCCCCC[n+]1ccccc1 ?
# output active

# input Record lookup: outcome of this test for NCCc1ccc(O)c(O)c1 ?
# output inactive

# input Could you please tell me the result logged for COc1cc2c(cc1OC)-c1cc3ccc(OC)c(OC)c3c[n+]1CC2 in this assay?
# output inactive

---

assay: chemical genetic growth profiling, strain panel (AID 1159580); conditions: S. cerevisiae deletion strains, growth OD, locus YAL021C, strain ccr4, active compounds read low
Among all 5,500 compounds or so, about 2,000 (36%) were called active. About 18% were inconclusive and are not listed. Some of the results follow.
resultType: normalized growth
No unit in the answer, please; the number alone is enough.

| molecule | normalized growth |
| --- | --- |
| CC(=O)Nc1cccc(O)c1 | 1.01 |
| CC1(C)O[C@@H]2CC3C4C[C@H](F)C5=CC(=O)C=C[C@]5(C)[C@@]4(F)[C@@H](O)C[C@]3(C)[C@]2(C(=O)CO)O1 (stereo partly specified) | 1.01 |
| CC(=O)Nc1ccc(OC(=O)c2ccccc2O)cc1 | 1 |
| C[N+]1(CCCCC[N+]2(C)CCCC2)CCCC1 | 0.99 |
| CC[C@]12C=CCN3CC[C@@]4(c5ccc(OC)cc5N(C)C4[C@@](O)(C(=O)OC)[C@@H]1OC(C)=O)[C@@H]32 (stereo partly specified) | 1.01 |

Please find the next molecule below.
# input Recall and state the measured normalized growth for C=CCCCCCCCCCCCC(O)CC(O)CO (stereo unspecified) .
# output 0.987

---

assay: chemical genetic growth profiling, strain panel (AID 1159580);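 further: tested at 20 µM; growth read once vehicle control cultures reached saturation at 30 °C; 1 = growth at the plate median or of vehicle wells; lower values mean less growth of the strain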; conditions: S. cerevisiae deletion strains, growth OD, locus YPL051W, strain arl3, active compounds read low
Among all 5,500 compounds or so, about 2,000 (36%) were called active. Another 18% or so got no clear call; they are omitted. This is one part of the list.
normalized growth reference
Lab note: jot down the number only; don't add units.

| smilesText | normalized growth |
| --- | --- |
| O=C1CC[C@]23C=CC(=O)NCCCCNCCCNC(=O)/C=C/c4ccc(c2c4)O[C@@H]3C1 | 1.02 |
| COc1cccc(-c2cc(=O)c3ccc(OC)cc3o2)c1 | 0.932 |
| C/C(=C\C(=O)OCCCCCCCCC(=O)O)C[C@@H]1OC[C@H](C[C@@H]2O[C@H]2[C@@H](C)[C@H](C)O)[C@@H](O)[C@H]1O | 0.984 |

# input Please supply the value of reported normalized growth for the item NCC(=O)CCC(=O)O
# output 0.997

# input Consider the molecule N[C@@H]1CONC1=O . State its measured normalized growth.
# output 0.957

---

test: chemical genetic growth profiling, strain panel (AID 1159580);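 further: tested at 20 µM; growth read once vehicle control cultures reached saturation at 30 °C; 1 = growth at the plate median or of vehicle wells; lower values mean less growth of the strain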; conditions: S. cerevisiae deletion strains, growth OD, locus YNL248C, strain rpa49
The whole screen tested about 5,500 compounds, of which about 2,000 (36%) were called active. Not shown: some 18% with an inconclusive outcome. No stated cut-off is given here; in the data, active means normalized growth mostly below about 0.91 (no sharp cut-off); inconclusive means no clear call, values can overlap the other calls; inactive means mostly above about 0.92. Some of the results follow.
Please state which outcome applies, choosing from y (active), n (inactive)

| compound | labelClass |
| --- | --- |
| CCCCOc1cc(CC2CNC(=O)N2)ccc1OC (configuration not stated) | n |
| COc1cc([C@@H]2c3cc4c(cc3[C@H](OC(C)=O)[C@H]3COC(=O)[C@H]23)OCO4)cc(OC)c1OC | n |
| CC(C)=CCc1c2c(c(O)c3c(=O)c(O)c(-c4ccccc4)oc13)C=CC(C)(C)O2 | y |
| COc1ccc(-c2cc(=O)c3c(O)c(OC)c(OC)c(OC)c3o2)cc1 | n |
| C[N+]1(CCCCC[N+]2(C)CCCC2)CCCC1 | n |

# input What classification did CC(=O)Nc1ccc(O)cc1 end up with in this test?
# output n

# input What did the test return for COc1ccc2cc3[n+](cc2c1OC)CCc1cc2c(cc1-3)OCO2 ?
# output n

# input Record request — test call for COc1cc2c3cc1Oc1cc(ccc1O)C[C@@H]1c4c(cc(OC)c(O)c4Oc4ccc(cc4)C[C@@H]3N(C)CC2)CC[N+]1(C)C
# output n

# input Please let me know the test result on file for COCCOC(=O)C1=C(C)NC(C)=C(C(=O)OC(C)C)C1c1cccc([N+](=O)[O-])c1 (configuration not stated) .
# output n

# input For Nc1ccc(C(=O)Oc2ccccc2)c(O)c1 , which call appears in the assay record?
# output n

# input Outcome logged for CC(=O)Nc1cccc(O)c1 in this assay:
# output n

# input Assay outcome for CC(=O)O[C@@H]1CC2C(C)(C)CCC(=O)[C@]2(C)C2CC[C@@]3(C)[C@H](c4ccoc4)OC(=O)C4OC43[C@@]21C (some centres not stated) : what was it?
# output n

# input What outcome does the record of this test show for NC(=O)CC[C@@H](N)C(=O)O ?
# output n

# input Please indicate how the test categorized CC1=NCCc2c1[nH]c1cc(O)ccc21 .
# output n

# input Outcome logged for COC(=O)C1=C(C)NC(C)=C(C(=O)OCC(C)C)C1c1ccccc1[N+](=O)[O-] (configuration not stated) in this assay:
# output y

# input Which outcome was entered for the compound CN1CCN2c3ccccc3Cc3ccccc3C2C1 (configuration not stated) in this test?
# output n

# input Query: recorded result category for CC(=O)Oc1cc(-c2coc3cc(OC(C)=O)c(OC(C)=O)c(OC(C)=O)c3c2=O)cc(OC(C)=O)c1OC(C)=O in this test
# output n

# input # lookup: test call for C=CCc1ccccc1OCC(O)CNC(C)C (configuration not stated)
# output n

# input State the result this test recorded for CC(C(=O)O)[C@H]1CCC2C3CC=C4C[C@@H](O)CC[C@]4(C)C3CC[C@@]21C (some centres not stated) .
# output n

---

experiment: chemical genetic growth profiling, strain panel (AID 1159580);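 further: tested at 20 µM; growth read once vehicle control cultures reached saturation at 30 °C; 1 = growth at the plate median or of vehicle wells; lower values mean less growth of the strain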; details: S. cerevisiae deletion strains, growth OD, locus YPR141C, strain kar3
The whole screen tested about 5,500 compounds, of which about 2,000 (36%) were called active. Not shown: some 18% with an inconclusive outcome. Rule as the data show it: active = normalized growth mostly below about 0.91 (no sharp cut-off); inconclusive = no clear call, values can overlap the other calls; inactive = mostly above about 0.92. The list shows a part of the results.
The reply should name one outcome from y = active, n = inactive

Solved entries:
| molecule | labelClass |
| --- | --- |
| ClC(Cl)=C(c1ccc(Cl)cc1)c1ccc(Cl)cc1 | n |
| N[C@@H]1CONC1=O | n |
| CCn1cc(C(=O)O)c(=O)c2cc(F)c(N3CCNCC3)cc21 | n |
| CCC(/C=C/[C@@H](C)[C@H]1CCC2C3CC=C4C[C@@H](O)CC[C@]4(C)C3CC[C@@]21C)C(C)C (stereo partly drawn) | n |
| CC(=O)Nc1ccc(OC(=O)c2ccccc2O)cc1 | n |
| COc1c(O)cccc1O | n |
| CC(=O)Oc1c(-c2ccccc2)oc2c(CC=C(C)C)c3c(c(OC(C)=O)c2c1=O)C=CC(C)(C)O3 | y |
| CC(=O)Nc1cccc(O)c1 | n |
| COc1ccc2cc3[n+](cc2c1OC)CCc1cc2c(cc1-3)OCO2 | n |
| O=C(/C=C/c1ccccc1)c1ccc(O)cc1 | y |

# input I would be grateful if you could indicate the recorded call for Nc1ccc(C(=O)O)c(O)c1 .
# output n

# input Answer briefly: the call reported for COc1cc([C@@H]2c3cc4c(cc3C(O[C@@H]3O[C@@H]5CO[C@@H](c6cccs6)OC5[C@H](O)[C@H]3O)C3COC(=O)[C@@H]32)OCO4)cc(OC)c1O (stereo partly drawn) in this assay.
# output n

# input Returns: the outcome recorded for CC1=NCCc2c1[nH]c1cc(O)ccc21 in this assay.
# output n

# input What call does the record list for COc1c(O)cc2c(-c3ccccc3)cc(=O)oc2c1OC ?
# output n

# input Short answer needed: outcome of this test for CCN(CC)CCNc1ccc(CO)c2sc3ccccc3c(=O)c12 ?
# output n

# input Per the assay record, what outcome was assigned to C=C1C(N)CC2CC1C2(C)C (stereo not drawn) ?
# output n

# input How did this test come out for Cn1nnnc1SCC1=C(C(=O)O)N2C(=O)C(NC(=O)C(O)c3ccccc3)C2SC1 (stereo not drawn) ?
# output n

# input Hey, what did the test say about CC1(C)O[C@@H]2CC3C4C[C@H](F)C5=CC(=O)C=CC5(C)C4C(O)CC3(C)[C@]2(C(=O)CO)O1 (stereo partly drawn) ?
# output n
